Listed here: items and their measured IC50.
system: Raji, human Burkitts lymphoma cells; test: Cell-MTS proliferation assay, Raji; assay type: cell-based; settings: Homo sapiens, Raji; Cell-MTS, 168 hr; class symbols A/B/C

[
  {
    "compound": "Cn1cc(-c2cccc(NS(C)(=O)=O)c2)ccc1=O [Example 94]",
    "IC50": "< 500 nM"
  },
  {
    "compound": "Cn1cc(-c2cc(S(C)(=O)=O)ccc2OCC2CC2)ccc1=O [Example 98]",
    "IC50": "500 to 5000 nM"
  },
  {
    "compound": "COc1ccc(-c2cc(N(C)C)c(=O)n(C)c2)cc1NS(C)(=O)=O [Example 113]",
    "IC50": "500 to 5000 nM"
  },
  {
    "compound": "Cc1cc(-c2cc(NS(C)(=O)=O)ccc2Oc2ccc(F)cc2F)cn(C)c1=O [Example 102]",
    "IC50": "< 500 nM"
  },
  {
    "compound": "CCS(=O)(=O)Nc1cccc(-c2cn(C)c(=O)c3ccncc23)c1 [Example 123]",
    "IC50": "500 to 5000 nM"
  },
  {
    "compound": "Cn1cc(-c2ccc(F)c(NS(C)(=O)=O)c2)c2ccccc2c1=O [Example 37]",
    "IC50": "500 to 5000 nM"
  }
]

Value of measured IC50 for the entry Cn1cc(-c2cc(S(C)(=O)=O)ccc2Oc2ccc(F)cc2F)c2ccccc2c1=O [Example 92] : < 500 nM

Value of measured IC50 for the entry Cn1cc(-c2cc(S(C)(=O)=O)ccc2OCC2CC2)cc(F)c1=O [Example 119] : 500 to 5000 nM

Value of measured IC50 for the entry CCS(=O)(=O)Nc1cc(-c2cn(C)c(=O)c3ccc(-c4cnn(C)c4)cc23)c(OC)cc1F [Example 86] : < 500 nM

---

Listed here: items and their measured pIC50.
molecular target: BRD4(BD1) (Homo sapiens (Human)); experiment: In vitro enzyme inhibition assay (BRD4 AlphaScreen); type: binding; conditions: in vitro enzyme inhibition assay
pIC50: −log10 of the molar value.

[
  {
    "testSmiles": "Cn1cc(-c2nc(CS(C)(=O)=O)ncc2Oc2ccc(F)cc2F)c2ccccc2c1=O",
    "pIC50": "> 6.30"
  },
  {
    "testSmiles": "CC(=O)Nc1nc(-c2cccc(NS(C)(=O)=O)c2)cn(C)c1=O",
    "pIC50": "< 5.30"
  },
  {
    "testSmiles": "Cn1cc(-c2cc(S(C)(=O)=O)ccc2NC(=O)C2CC2)c2ccccc2c1=O",
    "pIC50": "5.30 to 6.30"
  },
  {
    "testSmiles": "CCS(=O)(=O)Nc1cc(OCc2ccccc2)cc(-c2cc(C)c(=O)n(C)c2)c1",
    "pIC50": "> 6.30"
  },
  {
    "testSmiles": "Cn1cc(-c2cc(S(C)(=O)=O)ccc2OCC2CC2)n2cnnc2c1=O",
    "pIC50": "< 5.30"
  },
  {
    "testSmiles": "CCS(=O)(=O)c1ccc(NCC2CC2)c(-c2cn(C)c(=O)c3ccccc23)c1",
    "pIC50": "> 6.30"
  }
]

Next item in the queue.
Value of measured pIC50 for the entry `CCCCc1cnc(NS(=O)(=O)CC)nc1-c1cc(C(C)C)c(=O)n(C)c1` : > 6.30

---

Listed here: items and their measured pIC50.
target: BRD4(BD1) (Homo sapiens (Human)); assay: In vitro enzyme inhibition assay (BRD4 AlphaScreen); assay type: binding; conditions: in vitro enzyme inhibition assay
pIC50: −log10 of the molar value.

Some molecules with known pIC50 results, for comparison:
[
  {
    "testSmiles": "Cc1cc(-c2cc(S(C)(=O)=O)ccc2NC2CCCC2)cn(C)c1=O",
    "systemTested": "BRD4(BD1) (Homo sapiens (Human))",
    "result": "> 6.30"
  },
  {
    "testSmiles": "Cc1cc(-c2nc(NS(C)(=O)=O)ncc2OCC2CC2)cn(C)c1=O",
    "systemTested": "BRD4(BD1) (Homo sapiens (Human))",
    "result": "> 6.30"
  }
]

Value of measured pIC50 for the entry `CCc1ccccc1-c1sc(NS(=O)(=O)CC)cc1-c1ccc(=O)n(C)c1` : < 5.30

---

Listed here: items and their measured pIC50.
biological target: BRD4(BD1) (Homo sapiens (Human)); assay: In vitro enzyme inhibition assay (BRD4 AlphaScreen); format: binding; conditions: class symbols A/B/C
pIC50: −log10 of the molar value.

Value of measured pIC50 for the entry `CCOc1ccc(S(N)(=O)=O)cc1-c1ccc(=O)n(C)c1` : > 6.30

---

system: Raji, human Burkitts lymphoma cells; experiment: Cell-MTS proliferation assay, Raji; assay type: cell-based; details: Homo sapiens, Raji; Cell-MTS, 168 hr; class symbols A/B/C
pIC50: −log10 of the molar value.
measuredParameter: pIC50

Some compounds with known pIC50 results, for comparison:
[
  {
    "testSmiles": "CCS(=O)(=O)Nc1cccc(-c2cn(C)c(=O)c3ccc(-c4ccc(C)nc4)cc23)c1",
    "systemTested": "Raji, human Burkitts lymphoma cells",
    "pIC50": "> 6.30"
  },
  {
    "testSmiles": "CCS(=O)(=O)Nc1cccc(-c2cn(C)c(=O)c3cc(F)ccc23)c1",
    "systemTested": "Raji, human Burkitts lymphoma cells",
    "pIC50": "5.30 to 6.30"
  },
  {
    "testSmiles": "Cn1cc(-c2cc(S(C)(=O)=O)ccc2OCC2CC2)c2ccc(F)cc2c1=O",
    "systemTested": "Raji, human Burkitts lymphoma cells",
    "pIC50": "> 6.30"
  },
  {
    "testSmiles": "Cn1cc(-c2cc(NS(C)(=O)=O)c(F)cc2F)c2ccccc2c1=O",
    "systemTested": "Raji, human Burkitts lymphoma cells",
    "pIC50": "5.30 to 6.30"
  }
]

Value of measured pIC50 for the entry `CN(C(=O)OC(C)(C)C)c1cccc(-c2cn(C)c(=O)c3ccccc23)c1` : 5.30 to 6.30

---

Biological target: BRD4(BD1) (Homo sapiens (Human), UniProt O60885)
Assay: In vitro enzyme inhibition assay (BRD4 AlphaScreen)
Assay type: binding
Settings: class symbols A/B/C
Protocol: His-tagged BRD4 was cloned, expressed and purified to homogeneity. […] BRD4 binding and inhibition was assessed by monitoring the interaction of biotinylated H4-tetraacetyl peptide (AnaSpec, H4K5/8/12/16(Ac), biotin-labeled) with the target using the AlphaScreen technology (Life Technologies). […] The ability of the compounds disclosed herein to inhibit BRD4 activity was quantified and the respective IC50 value was determined.
Counter-ions that a name gives are not always drawn.
measuredParameter: IC50

Some molecules with known IC50 results, for comparison:
[
  {
    "molecule": "COc1ccc(-c2cc(N)c(=O)n(C)c2)cc1NS(C)(=O)=O [Example 109]",
    "IC50": "500 to 5000 nM"
  },
  {
    "molecule": "Cn1cc(-c2cc(N)c(F)cc2F)c2ccccc2c1=O [Example 24, hydrochloride]",
    "IC50": "500 to 5000 nM"
  },
  {
    "molecule": "CCS(=O)(=O)Nc1cccc(-c2cn(C)c(=O)c3cc(F)ccc23)c1 [Example 62]",
    "IC50": "< 500 nM"
  },
  {
    "molecule": "COc1ccccc1-c1cn(C)c(=O)c2ccccc12 [Example 4]",
    "IC50": "> 5000 nM"
  },
  {
    "molecule": "Cc1ccc(NS(C)(=O)=O)cc1-c1cn(C)c(=O)c2ccccc12 [Example 39]",
    "IC50": "< 500 nM"
  }
]

Next item in the queue.
Value of measured IC50 for the entry CCNS(=O)(=O)c1cccc(-c2cn(C)c(=O)c3cnccc23)c1 [Example 53] : 500 to 5000 nM
